tgt: UniProt P07607
Sequence (P07607 whole entry): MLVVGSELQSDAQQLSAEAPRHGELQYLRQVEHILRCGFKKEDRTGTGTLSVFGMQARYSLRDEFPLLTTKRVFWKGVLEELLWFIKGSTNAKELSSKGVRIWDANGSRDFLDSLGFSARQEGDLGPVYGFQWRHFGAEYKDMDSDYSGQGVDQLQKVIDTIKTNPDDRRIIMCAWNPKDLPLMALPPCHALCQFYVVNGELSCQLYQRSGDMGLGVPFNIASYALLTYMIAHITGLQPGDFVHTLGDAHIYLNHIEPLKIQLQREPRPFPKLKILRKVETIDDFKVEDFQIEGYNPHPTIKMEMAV
method_notes: Inhibition of mouse thymidylate synthase in mouse L1210 cells
endpoint_label: Ki (µM)

Below are worked cases with known answers.
[
  {
    "structure_notation": "O=c1[nH]c(=O)n([C@H]2C[C@H](O)[C@@H](OP(=O)(O)O)O2)cc1O",
    "Ki (µM)": 0.309
  },
  {
    "structure_notation": "O=c1[nH]c(=O)n([C@H]2C[C@H](O)[C@@H](OP(=O)(O)O)O2)cc1I",
    "Ki (µM)": 0.128
  },
  {
    "structure_notation": "O=c1[nH]c(=O)n([C@H]2C[C@H](O)[C@@H](OP(=O)(O)O)O2)cc1[N+](=O)[O-]",
    "Ki (µM)": 0.00257
  }
]

P. O=c1[nH]c(=O)n([C@H]2C[C@H](O)[C@@H](OP(=O)(O)O)O2)cc1Br
Q. CCc1cn([C@H]2C[C@H](O)[C@@H](OP(=O)(O)O)O2)c(=O)[nH]c1=O
R. Cc1cn([C@H]2C[C@H](O)[C@@H](OP(=O)(O)O)O2)c(=O)[nH]c1=O
S. O=c1[nH]c(=O)n([C@H]2C[C@H](O)[C@@H](OP(=O)(O)O)O2)cc1CO
T. CCCc1cn([C@H]2C[C@H](O)[C@@H](OP(=O)(O)O)O2)c(=O)[nH]c1=O
Prompt: List from greatest to least Ki. List the labels, following the order given in the request.
Completion: P, S, R, Q, T
